Here, each record is paired with measured IC50 (read off the curve) data.
Target: T1, recombinant human IL-23 (human, UniProt Q9NPF7 20-189; P29460 23-328)
T1 construct: also called hIL-23
T1 sequence 1: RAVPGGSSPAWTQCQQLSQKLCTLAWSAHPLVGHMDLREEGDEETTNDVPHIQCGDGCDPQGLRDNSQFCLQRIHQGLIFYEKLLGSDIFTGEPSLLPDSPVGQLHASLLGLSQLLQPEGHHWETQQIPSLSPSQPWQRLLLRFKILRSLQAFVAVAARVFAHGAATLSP
T1 sequence 2: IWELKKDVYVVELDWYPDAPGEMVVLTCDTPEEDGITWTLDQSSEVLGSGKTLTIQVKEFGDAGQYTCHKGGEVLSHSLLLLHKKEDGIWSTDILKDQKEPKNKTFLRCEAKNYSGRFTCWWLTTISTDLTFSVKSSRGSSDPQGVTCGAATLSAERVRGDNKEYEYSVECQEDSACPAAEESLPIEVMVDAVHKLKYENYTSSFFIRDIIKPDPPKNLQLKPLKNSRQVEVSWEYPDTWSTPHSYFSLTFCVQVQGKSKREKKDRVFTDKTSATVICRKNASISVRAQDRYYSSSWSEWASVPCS
Assay: IL-23/IL-23R inhibition ELISA (optimised protocol, OD450): plate coated with human IL23R Fc chimera, antibody pre-incubated with constant human IL-23, bound IL-23 detected with biotinylated anti-human IL-12; purified antibody

The examples below pair each entry with its known result.
# Binder, Result
records = [
    ("chimeric 8C92H6 HC1LC1 (antibody, V domains shown, Murine variable regions with human constant regions; also called 8C92H6.HC1LC1 Chimera; 8C9 chimera) VH: QVQLQQSGAELARPGTSVKLSCKASGYTFTSYGITWVKQRTGQGLEWIGENYPRSGNTYYNEKFKGKATLTADKSSSTAYMELRSLTSEDSAVYFCARCEFISTVVAPYYYALDYWGQGTSLVTVS VL: DIVLTQSPASLAVSLGQKATISCKASKKVTIFGSISALHWYQQKPGQPPKLIYNGAKLESGVSARFSDSGSQNRSPFGNQLSFTLTIDPVEADDAATYYCLQNKEVPYTFGGGTKLEIKR", "~2 nM"),
    ("A5M0 (antibody, human IgG1, kappa, V domains shown, Full length chains) VH: QVQLVQSGAEVKKPGSSVKVSCKASGYTFTSYGITWVRQAPGQGLEWMGENYPRSGNTYYNEKFKGRVTITADKSTSTAYMELSSLRSEDTAVYYCARAEFISTVVAPYYYALDYWGQGTLVTVSS VL: DIVMTQSPDSLAVSLGERATINCKASKKVTIFGSISALHWYQQKPGQPPKLIYNGAKLESGVPDRFSGSGSGTDFTLTISSLQAEDVAVYYCLQNKEVPYTFGGGTKVEIKR", "~0.2 nM"),
]

Note: attention shifts to another entry.
// A3N1 (antibody, human IgG1, kappa, V domains shown, Full length chains) VH: QVQLVQSGAEVKKPGSSVKVSCKASGYTFTSYGITWVRQAPGQGLEWMGENYPRSGNTYYNEKFKGRVTITADKSTSTAYMELSSLRSEDTAVYYCARSEFISTVVAPYYYALDYWGQGTLVTVSS VL: DIVMTQTPLSLSVTPGQPASISCKASKKVTIFGSISALHWYLQKPGQPPQLIYNGAKLESGVSDRFSDSGSQNRSPFGNQLSFTLKISRVEAEDVGVYYCLQNKEVPYTFGGGTKVEIKR : IC50 (read off the curve) value = ~1 nM
